The measured values listed here are drawn from patent US20230302150A1.

target.desc: hTLR7 (Homo sapiens, UniProt Q9NYK1)
Construct: expressed in transfected cells; host or cells: HEK-Blue hTLR7 reporter cell line
Sequence (Q9NYK1 27-1049): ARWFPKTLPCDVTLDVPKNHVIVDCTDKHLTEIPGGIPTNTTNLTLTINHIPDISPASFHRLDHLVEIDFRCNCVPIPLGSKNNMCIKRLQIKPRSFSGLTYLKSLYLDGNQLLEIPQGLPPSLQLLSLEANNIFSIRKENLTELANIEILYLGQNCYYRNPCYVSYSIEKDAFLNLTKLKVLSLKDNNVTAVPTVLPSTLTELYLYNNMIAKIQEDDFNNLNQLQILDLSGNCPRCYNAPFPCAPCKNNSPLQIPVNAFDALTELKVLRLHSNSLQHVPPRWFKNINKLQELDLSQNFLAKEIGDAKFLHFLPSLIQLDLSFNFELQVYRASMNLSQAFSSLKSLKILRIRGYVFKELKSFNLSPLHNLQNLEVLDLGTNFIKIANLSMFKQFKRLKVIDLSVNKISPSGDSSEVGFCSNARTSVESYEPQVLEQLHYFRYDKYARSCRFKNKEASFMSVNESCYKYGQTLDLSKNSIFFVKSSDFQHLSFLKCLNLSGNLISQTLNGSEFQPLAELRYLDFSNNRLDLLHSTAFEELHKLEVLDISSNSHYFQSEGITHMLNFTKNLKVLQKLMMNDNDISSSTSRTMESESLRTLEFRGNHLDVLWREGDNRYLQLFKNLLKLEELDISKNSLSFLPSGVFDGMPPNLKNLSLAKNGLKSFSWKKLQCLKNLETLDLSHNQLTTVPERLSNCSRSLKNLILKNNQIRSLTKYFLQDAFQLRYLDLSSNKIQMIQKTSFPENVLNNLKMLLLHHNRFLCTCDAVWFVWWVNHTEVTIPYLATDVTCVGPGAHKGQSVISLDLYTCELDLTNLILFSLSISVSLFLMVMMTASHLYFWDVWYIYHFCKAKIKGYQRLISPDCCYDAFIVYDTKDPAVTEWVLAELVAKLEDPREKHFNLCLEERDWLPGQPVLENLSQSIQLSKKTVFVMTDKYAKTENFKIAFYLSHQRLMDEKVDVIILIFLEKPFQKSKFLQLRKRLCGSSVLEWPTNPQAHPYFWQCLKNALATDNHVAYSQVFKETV
procedure.text: HEK-Blue hTLR7 reporter assay (NF-kB-induced SEAP, Quanti-Blue)
Assay type: cell-based
test.settings: Table 14; read-out: TLR7 EC50
value.kind: EC50 (nM)
Give bare numbers, in nM.

[[record]]
compound = "CCCCc1nc2c(N)nc3ccccc3c2n1CCCCNC(=O)CON [AXC-910, reference compound]"
numeric_value = 2590


Hi team, please reply with EC50 for each item in this list.
1. CCCCCNc1nc(N)nc2ccn(Cc3cc(CN4CCN(CCCNC(=O)CON)CC4)ccc3OC)c12 [AXC-860, reference compound]
2. CCCCNc1nc(N)c2[nH]c(=O)n(Cc3ccc(OCCN(C)C)nc3)c2n1 [DSR-6434, reference compound]

Reply:
1: 120; 2: 10.5

====

target.desc: hTLR7 (Homo sapiens)
Construct: expressed in transfected cells; host or cells: HEK-Blue hTLR7 reporter cell line
procedure.text: HEK-Blue hTLR7 reporter assay (NF-kB-induced SEAP, Quanti-Blue)
Format: cell-based
test.settings: Table 12, TLR7 agonists attached to a linker; read-out: TLR Agonist Payload + Linkers EC50
Please respond with reported pEC50 for every item in the list.
Answers are plain numbers, as −log10 of the molar value.

Field: example entries. Status: answers known.
[[record]]
compound = "CCCCOc1nc(N)c2[nH]c(=O)n(Cc3ccc(CNCCCCCCNC(=O)CON)cc3)c2n1"
numeric_value = 6.26

[[record]]
compound = "CCCCOc1nc(N)c2[nH]c(=O)n(Cc3ccc(CN4CCC(CCNC(=O)CON)CC4)cc3)c2n1"
numeric_value = 6.82

[[record]]
compound = "CCCCNc1nc(N)c2[nH]c(=O)n(Cc3ccc(N4CCN(CCNC(=O)CON)CC4)nc3)c2n1"
numeric_value = 6.08

[[record]]
compound = "CCCCOc1nc(N)c2[nH]c(=O)n(Cc3ccc(CNC(=O)CON)cc3)c2n1"
numeric_value = 6.40

[[record]]
compound = "CCCCNc1nc(N)c2[nH]c(=O)n(Cc3ccc(OCCN(C)C)nc3)c2n1 [DSR-6434, reference compound]"
numeric_value = 7.83


Hi team, please reply with pEC50 for each item in this list.
1. CCCCOc1nc(N)c2[nH]c(=O)n(Cc3ccc(N4CCC(CCNC(=O)CCOCCON)CC4)nc3)c2n1
2. CCCCOc1nc(N)c2[nH]c(=O)n(Cc3ccc(CN4CCC(CCNC(=O)CCC(CCC(=O)NCCC5CCN(Cc6ccc(Cn7c(=O)[nH]c8c(N)nc(OCCCC)nc87)cc6)CC5)NC(=O)CON)CC4)cc3)c2n1

Reply:
6.44
6.16

====

target.desc: hTLR7 (Homo sapiens)
Construct: expressed in transfected cells; host or cells: HEK-Blue hTLR7 reporter cell line
Sequence (Q9NYK1 27-1049): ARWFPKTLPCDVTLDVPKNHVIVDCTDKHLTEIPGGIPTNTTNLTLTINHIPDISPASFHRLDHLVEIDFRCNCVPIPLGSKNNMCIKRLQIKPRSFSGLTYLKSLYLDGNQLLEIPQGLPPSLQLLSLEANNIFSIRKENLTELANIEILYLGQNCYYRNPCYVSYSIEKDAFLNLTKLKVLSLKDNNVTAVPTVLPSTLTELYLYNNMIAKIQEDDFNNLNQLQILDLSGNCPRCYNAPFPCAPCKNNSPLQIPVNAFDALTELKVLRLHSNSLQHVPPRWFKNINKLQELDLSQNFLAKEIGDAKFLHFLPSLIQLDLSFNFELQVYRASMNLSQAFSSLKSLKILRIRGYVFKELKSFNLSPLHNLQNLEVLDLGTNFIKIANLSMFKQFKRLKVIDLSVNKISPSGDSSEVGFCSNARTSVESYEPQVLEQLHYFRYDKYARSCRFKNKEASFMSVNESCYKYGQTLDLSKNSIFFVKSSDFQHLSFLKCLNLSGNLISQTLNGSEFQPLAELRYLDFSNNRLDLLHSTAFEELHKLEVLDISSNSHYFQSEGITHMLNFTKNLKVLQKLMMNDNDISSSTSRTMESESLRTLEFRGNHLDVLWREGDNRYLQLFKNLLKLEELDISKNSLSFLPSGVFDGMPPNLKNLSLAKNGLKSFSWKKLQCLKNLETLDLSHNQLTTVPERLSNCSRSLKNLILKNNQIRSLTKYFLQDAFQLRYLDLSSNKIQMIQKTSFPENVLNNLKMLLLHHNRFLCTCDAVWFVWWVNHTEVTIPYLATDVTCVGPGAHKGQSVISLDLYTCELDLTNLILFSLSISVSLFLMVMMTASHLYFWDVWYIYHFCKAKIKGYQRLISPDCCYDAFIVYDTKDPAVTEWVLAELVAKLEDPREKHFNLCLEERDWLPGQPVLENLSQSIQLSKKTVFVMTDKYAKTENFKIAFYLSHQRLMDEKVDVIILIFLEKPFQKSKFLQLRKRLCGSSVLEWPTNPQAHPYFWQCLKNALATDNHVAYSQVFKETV
procedure.text: HEK-Blue hTLR7 reporter assay (NF-kB-induced SEAP, Quanti-Blue)
Type: cell-based
test.settings: Table 15, pAF containing final metabolite; read-out: TLR Agonist + Linker + nnAA (DL-pAF) - EC50
value.kind: EC50 (nM)
Numbers only, in nM.

Field: example entries. Status: answers known.
[[record]]
compound = "CCCCOc1nc(N)c2[nH]c(=O)n(Cc3ccc(CN4CCC(CCNC(=O)CON)CC4)cc3)c2n1"
value_kind = "EC50"
numeric_value = 90

[[record]]
compound = "CCCCOc1nc(N)c2[nH]c(=O)n(Cc3ccc(CNCCCCCCNC(=O)CON)cc3)c2n1"
value_kind = "EC50"
numeric_value = 343

[[record]]
compound = "CCCCNc1nc(N)c2[nH]c(=O)n(Cc3ccc(N4CCN(CCNC(=O)CON)CC4)nc3)c2n1"
value_kind = "EC50"
numeric_value = 283

[[record]]
compound = "CCCCOc1nc(N)c2[nH]c(=O)n(Cc3ccc(CNC(=O)CON)cc3)c2n1"
value_kind = "EC50"
numeric_value = 121


Hi team, please reply with EC50 for each item in this list.
1. CCCCOc1nc(N)c2[nH]c(=O)n(Cc3ccc(CN4CCC(CCNC(=O)CCOCCON)CC4)cc3)c2n1
2. CCCCNc1nc(N)c2[nH]c(=O)n(Cc3ccc(OCCN(C)C)nc3)c2n1 [DSR-6434, reference compound]
3. CCCCOc1nc(N)c2[nH]c(=O)n(Cc3ccc(N4CCC(CCNC(=O)CCOCCON)CC4)nc3)c2n1
4. CCCCOc1nc(N)c2[nH]c(=O)n(Cc3ccc(CNC(=O)CCOCCON)cc3)c2n1

Reply:
167
11
245
287

====

target.desc: hTLR7 (Homo sapiens, UniProt Q9NYK1)
Construct: expressed in transfected cells; host or cells: HEK-Blue hTLR7 reporter cell line
Sequence (Q9NYK1 27-1049): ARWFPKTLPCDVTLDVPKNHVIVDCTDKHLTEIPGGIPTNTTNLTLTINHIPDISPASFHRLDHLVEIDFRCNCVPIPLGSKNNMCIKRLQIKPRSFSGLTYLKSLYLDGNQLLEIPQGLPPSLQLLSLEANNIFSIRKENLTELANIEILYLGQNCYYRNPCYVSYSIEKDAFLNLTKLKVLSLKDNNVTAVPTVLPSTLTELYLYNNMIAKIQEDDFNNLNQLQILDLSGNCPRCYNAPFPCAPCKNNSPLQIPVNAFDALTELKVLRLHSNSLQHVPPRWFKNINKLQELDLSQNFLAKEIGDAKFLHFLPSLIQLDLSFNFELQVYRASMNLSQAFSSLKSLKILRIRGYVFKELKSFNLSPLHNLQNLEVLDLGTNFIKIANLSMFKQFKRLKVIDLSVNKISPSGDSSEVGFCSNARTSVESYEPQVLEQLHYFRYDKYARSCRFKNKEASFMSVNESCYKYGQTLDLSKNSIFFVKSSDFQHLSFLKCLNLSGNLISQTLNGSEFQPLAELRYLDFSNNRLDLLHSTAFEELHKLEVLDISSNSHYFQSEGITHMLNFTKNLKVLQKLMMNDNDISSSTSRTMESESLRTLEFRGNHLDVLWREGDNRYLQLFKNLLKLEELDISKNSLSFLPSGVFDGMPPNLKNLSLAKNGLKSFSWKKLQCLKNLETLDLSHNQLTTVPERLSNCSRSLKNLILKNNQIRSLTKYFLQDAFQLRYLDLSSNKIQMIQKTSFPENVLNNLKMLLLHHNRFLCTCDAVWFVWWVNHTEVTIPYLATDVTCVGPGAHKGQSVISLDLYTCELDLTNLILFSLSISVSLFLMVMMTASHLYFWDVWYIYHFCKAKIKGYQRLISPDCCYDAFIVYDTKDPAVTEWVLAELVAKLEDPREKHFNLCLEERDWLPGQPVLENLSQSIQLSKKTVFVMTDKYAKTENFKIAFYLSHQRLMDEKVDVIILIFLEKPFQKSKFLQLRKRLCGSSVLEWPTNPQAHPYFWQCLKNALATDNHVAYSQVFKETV
procedure.text: HEK-Blue hTLR7 reporter assay (NF-kB-induced SEAP, Quanti-Blue)
Format: cell-based
test.settings: Table 19, TLR7, drug-linkers with PEG shielding; read-out: EC50
value.kind: EC50 (nM)
Answers are plain numbers, in nM.

Field: example entries. Status: answers known.
[[record]]
query_smiles = "CCCCOc1nc(NC(=O)CCOCCOCCOC)c2[nH]c(=O)n(Cc3ccc(CN4CCC(CCNC(=O)CON)CC4)cc3)c2n1"
value_kind = "EC50"
numeric_value = 53.3

[[record]]
query_smiles = "CCCCOc1nc(N)c2[nH]c(=O)n(Cc3ccc(CN4CCC(CCNC(=O)[C@H](CCCCNC(=O)CCOCCOCCOCCOCCOCCOCCOCCOCCOCCOCCOCCOCCOCCOCCOCCOCCOCCOCCOCCOCCOCCOCCOCCOC)NC(=O)CON)CC4)cc3)c2n1"
value_kind = "EC50"
numeric_value = 760

[[record]]
query_smiles = "CCCCOc1nc(N)c2[nH]c(=O)n(Cc3ccc(CN4CCC(CCNC(=O)[C@@H](CCCCNC(=O)CCCC(=O)NCCOCCOCCOCCOCCC(=O)NC(COCCC(=O)NCCOCCOCCOCCOCCOCCOCCOCCOC)(COCCC(=O)NCCOCCOCCOCCOCCOCCOCCOCCOC)COCCC(=O)NCCOCCOCCOCCOCCOCCOCCOCCOC)NC(=O)CON)CC4)cc3)c2n1"
value_kind = "EC50"
numeric_value = 856

[[record]]
query_smiles = "CCCCOc1nc(N)c2[nH]c(=O)n(Cc3ccc(CN4CCC(CCNC(=O)[C@H](CCCCNC(=O)CON)NC(=O)CCCC(=O)NCCOCCOCCOCCOCCC(=O)NC(COCCC(=O)NCCOCCOCCOCCOCCOCCOCCOCCOC)(COCCC(=O)NCCOCCOCCOCCOCCOCCOCCOCCOC)COCCC(=O)NCCOCCOCCOCCOCCOCCOCCOCCOC)CC4)cc3)c2n1"
value_kind = "EC50"
numeric_value = 232

[[record]]
query_smiles = "CCCCOc1nc(NC(C)=O)c2[nH]c(=O)n(Cc3ccc(CN4CCC(C5CCN(C(=O)CON)CC5)CC4)cc3)c2n1"
value_kind = "EC50"
numeric_value = 10.1


Hi team, please reply with EC50 for each item in this list.
1. CCCCOc1nc(N)c2[nH]c(=O)n(Cc3ccc(CN4CCC(CCNC(=O)[C@@H](N)Cn5cc(CON)nn5)CC4)cc3)c2n1
2. CCCCOc1nc(N)c2[nH]c(=O)n(Cc3ccc(CN4CCC(CCNC(=O)[C@H](CCCCNC(=O)CON)NC(=O)CCCC(=O)NCCOCCOCCOCCOCCC(=O)NC(COCCC(=O)NCCOCCOCCOCCOC)(COCCC(=O)NCCOCCOCCOCCOC)COCCC(=O)NCCOCCOCCOCCOC)CC4)cc3)c2n1
3. CCCCOc1nc(N)c2[nH]c(=O)n(Cc3ccc(CN4CCC(CCNC(=O)[C@H](CCCCNC(=O)CCCC(=O)NCCOCCOCCOCCOCCC(=O)NC(COCCC(=O)NCCOCCOCCOCCOCCOCCOCCOCCOC)(COCCC(=O)NCCOCCOCCOCCOCCOCCOCCOCCOC)COCCC(=O)NCCOCCOCCOCCOCCOCCOCCOCCOC)NC(=O)CON)CC4)cc3)c2n1
4. CCCCOc1nc(N)c2[nH]c(=O)n(Cc3ccc(CN4CCC(CCNC(=O)[C@H](Cc5ccc(OP(=O)(O)O)cc5)NC(=O)CON)CC4)cc3)c2n1

Reply:
1. 156
2. 644
3. 1020
4. 267
